Below, each entry is listed with its recorded pKi.
# target desc: chorionic peptidase-1 (C-ase-1)
# assay method text: C-ase-1 enzyme activity assay, competition for degradation of GnRH
# assay context: competition for degradation of mammalian GnRH, Example III
Non-standard residues stand in square brackets, D forms with d. Residues, ends and D or L forms follow the SMILES beside them. pGlu = O=C1CC[C@@H](C(=O)O)N1
Answer as the number alone; pKi is minus log10 of concentration in mol/L.

{"compound": "NC(=O)CNC(=O)[C@@H]1CCCN1C(=O)[C@H](Cc1ccc(O)cc1)NC(=O)[C@H](Cc1c[nH]c2ccccc12)NC(=O)CNC(=O)[C@H](Cc1c[nH]cn1)NC(=O)[C@H](CO)NC(=O)[C@H](Cc1c[nH]c2ccccc12)NC(=O)[C@H](Cc1c[nH]cn1)NC(=O)[C@@H]1CCC(=O)N1 [chicken II GnRH] ([pGlu]HWSHGWYPG-NH2; C-terminus assumed)", "pKi": 6.70}

Exercise: Param item = `CCNC(=O)[C@@H]1CCCN1C(=O)[C@H](CCCNC(=N)N)NC(=O)[C@H](CC(C)C)NC(=O)[C@@H](COC(C)(C)C)NC(=O)[C@H](Cc1ccc(O)cc1)NC(=O)[C@H](CO)NC(=O)[C@H](Cc1c[nH]c2ccccc12)NC(=O)[C@H](Cc1cnc[nH]1)NC(=O)[C@@H]1CCC(=O)N1` ; retrieve measured pKi.
Solution: 6.96

----------
# Test system: human placental GnRH receptor
# assay method text: Placental GnRH receptor binding, 125I-Buserelin label
# assay context: 125I-Buserelin, Example VI
Non-standard residues stand in square brackets, D forms with d. Residues, ends and D or L forms follow the SMILES beside them. pGlu = O=C1CC[C@@H](C(=O)O)N1
test readout: receptor activity/potency compared with GnRH

Exercise: Param item = CCNC(=O)[C@@H]1CCCN1C(=O)[C@H](Cc1ccc(O)cc1)NC(=O)[C@H](Cc1c[nH]c2ccccc12)NC(=O)CNC(=O)[C@H](Cc1c[nH]cn1)NC(=O)[C@H](CO)NC(=O)[C@H](Cc1c[nH]c2ccccc12)NC(=O)[C@H](Cc1c[nH]cn1)NC(=O)[C@@H]1CCC(=O)N1 [chicken II GnRH ethylamide, chicken II GnRH-^10 ethylamide] ([pGlu]HWSHGWYP-NHEt) ; retrieve measured receptor activity/potency compared with GnRH.
Solution: 33 fold

----------
# Test system: chorionic peptidase-1 (C-ase-1)
# assay method text: C-ase-1 enzyme activity assay, competition for degradation of GnRH
# assay context: Example V
Non-standard residues stand in square brackets, D forms with d. Residues, ends and D or L forms follow the SMILES beside them. pGlu = O=C1CC[C@@H](C(=O)O)N1
test readout: relative potency of inhibition of C-ase-1 degradation of GnRH, compared to GnRH
Could you respond with only the numeric value?

Exercise: Param item = CC(C)C[C@H](NC(=O)[C@H](Cc1c[nH]c2ccccc12)NC(=O)CNC(=O)[C@H](Cc1ccc(O)cc1)NC(=O)[C@H](CO)NC(=O)[C@H](Cc1c[nH]c2ccccc12)NC(=O)[C@H](Cc1c[nH]cn1)NC(=O)[C@@H]1CCC(=O)N1)C(=O)N1CCC[C@H]1C(=O)NCC(N)=O [salmon GnRH] ([pGlu]HWSYGWLPG-NH2) ; retrieve measured relative potency of inhibition of C-ase-1 degradation of GnRH, compared to GnRH.
Solution: 0.2

----------
# Test system: chorionic peptidase-1 (C-ase-1)
# assay method text: C-ase-1 enzyme activity assay, competition for degradation of GnRH
# assay context: Example V
Non-standard residues stand in square brackets, D forms with d. Residues, ends and D or L forms follow the SMILES beside them. *: point of attachment. dPhe(4-Cl) = N[C@H](Cc1ccc(Cl)cc1)C(=O)O; d2Nal = N[C@H](Cc1ccc2ccccc2c1)C(=O)O; Lys(iPr) = CC(C)NCCCC[C@H](N)C(=O)O; d3Pal = N[C@H](Cc1cccnc1)C(=O)O; pGlu = O=C1CC[C@@H](C(=O)O)N1; Nicotinoyl = O=C(c1cccnc1)*
Below, each entry is listed with its recorded relative potency of inhibition of C-ase-1 degradation of GnRH, compared to GnRH.
Could you respond with only the numeric value?

Some solved entries appear below for comparison.
{"compound": "CC(C)C[C@H](NC(=O)[C@H](CO)NC(=O)[C@H](Cc1ccc(O)cc1)NC(=O)[C@H](Cc1c[nH]cn1)NC(=O)[C@@H]1CCC(=O)N1)C(=O)N[C@@H](CCC(=O)O)C(=O)N[C@@H](Cc1c[nH]c2ccccc12)C(=O)N[C@@H](CCCCN)C(=O)N1CCC[C@H]1C(=O)NCC(N)=O [lamprey GnRH] ([pGlu]HYSLEWKPG-NH2)", "measured": 1.5}
{"compound": "CC(=O)N[C@H](Cc1ccc2ccccc2c1)C(=O)N[C@H](Cc1ccc(Cl)cc1)C(=O)N[C@H](Cc1cccnc1)C(=O)N[C@@H](CO)C(=O)N[C@@H](CCCCNC(=O)c1cccnc1)C(=O)N[C@H](CCCCNC(=O)c1cccnc1)C(=O)N[C@@H](CC(C)C)C(=O)N[C@@H](CCCCNC(C)C)C(=O)N1CCC[C@H]1C(=O)N[C@H](C)C(N)=O [Antide] (Ac-[d2Nal][dPhe(4-Cl)][d3Pal]SK(Nicotinoyl)[dK](Nicotinoyl)L[Lys(iPr)]P[dA]-NH2; N-terminus and C-terminus assumed)", "measured": 0.6}

For the next question, use this compound.
Exercise: Param item = NC(=O)CNC(=O)[C@@H]1CCCN1C(=O)[C@H](Cc1ccc(O)cc1)NC(=O)[C@H](Cc1c[nH]c2ccccc12)NC(=O)CNC(=O)[C@H](Cc1c[nH]cn1)NC(=O)[C@H](CO)NC(=O)[C@H](Cc1c[nH]c2ccccc12)NC(=O)[C@H](Cc1c[nH]cn1)NC(=O)[C@@H]1CCC(=O)N1 [chicken II GnRH] ([pGlu]HWSHGWYPG-NH2; C-terminus assumed) ; retrieve measured relative potency of inhibition of C-ase-1 degradation of GnRH, compared to GnRH.
Solution: 0.2

The reported numbers originate from patent US20050282745A1.
